Data provenance is ChEMBL document CHEMBL2021850.

target: Glucocorticoid receptor (Homo sapiens, UniProt P04150); assay: Transactivation activity at glucocorticoid receptor in human HepG2 cells assessed as induction of tyrosine aminotransferase; assay type: ADME, cell-based
Sequence (P04150 whole entry): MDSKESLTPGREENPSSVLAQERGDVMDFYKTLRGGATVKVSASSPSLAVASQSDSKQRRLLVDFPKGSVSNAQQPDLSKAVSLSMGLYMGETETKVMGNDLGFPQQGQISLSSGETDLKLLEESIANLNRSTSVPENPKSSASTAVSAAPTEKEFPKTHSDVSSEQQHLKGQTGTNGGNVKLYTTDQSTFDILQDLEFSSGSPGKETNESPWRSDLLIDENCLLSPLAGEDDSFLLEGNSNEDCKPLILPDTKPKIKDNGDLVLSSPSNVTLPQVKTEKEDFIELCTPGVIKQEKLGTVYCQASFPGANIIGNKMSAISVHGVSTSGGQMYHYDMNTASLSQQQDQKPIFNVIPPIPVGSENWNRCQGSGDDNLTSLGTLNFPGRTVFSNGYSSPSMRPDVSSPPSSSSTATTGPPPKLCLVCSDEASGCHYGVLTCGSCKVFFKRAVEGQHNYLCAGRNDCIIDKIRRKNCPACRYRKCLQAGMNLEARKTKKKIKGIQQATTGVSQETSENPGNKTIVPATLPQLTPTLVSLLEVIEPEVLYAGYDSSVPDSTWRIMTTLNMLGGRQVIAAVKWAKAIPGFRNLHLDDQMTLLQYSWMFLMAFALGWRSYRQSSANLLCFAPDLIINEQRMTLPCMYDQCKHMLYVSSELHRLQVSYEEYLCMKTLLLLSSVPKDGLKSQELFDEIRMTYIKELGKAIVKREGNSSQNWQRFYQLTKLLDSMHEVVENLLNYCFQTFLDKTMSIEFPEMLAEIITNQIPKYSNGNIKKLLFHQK
Property Label: IC50 (µM)

                            chemical_string                             tested_system  numeric_readout
0  C[C@]12Cc3cnn(-c4ccc(F)cc4)c3C=C1CC[C@@H]1[C@@H]2[C@@H](O)C[C@@]2(C)[C@H]1CC[C@]2(O)C(=O)CSc1nccc2ccccc12  Glucocorticoid receptor (Homo sapiens, UniProt P04150)           0.0373
1  C[C@]12Cc3cnn(-c4ccccc4)c3C=C1CC[C@@H]1[C@@H]2[C@@H](O)C[C@@]2(C)[C@H]1CC[C@]2(O)C(=O)CSc1nc2ccccc2s1  Glucocorticoid receptor (Homo sapiens, UniProt P04150)            0.165
2  C[C@]12Cc3cnn(-c4ccccc4)c3C=C1CC[C@@H]1[C@@H]2[C@@H](O)C[C@@]2(C)[C@H]1CC[C@]2(O)C(=O)CSc1ccccn1  Glucocorticoid receptor (Homo sapiens, UniProt P04150)            0.596
